system-under-test: pooled human IgG (human IgG1, 2, 3 and 4)
readout-kind: Enzyme Activity Endpoint Assay (purified): Fc (ng/µL)
State just the number; it will be interpreted in ng/µL.

Problem: Requested field: Enzyme Activity Endpoint Assay (purified): Fc. Item: PRT-377 (protein) MVTSVWTKGVTPPTNFTYGEDVLHAPYVANQGWYDITKTFNGKDDLLCGAATAGNMLHWWFDQNKEQIENYLKKHPEKQKINFNGEQMFDVKEAIDTKDSQLDSKLFEYFLEKAFPYLSTKHLGVFPDHVIDMFINGYRLSLTNHGPTPVKRGSKDPRGGIFDAVFTRGDQSKLLTNRHDFKEKTLKEISDLIKQELTEGKALGISHTYANVRINHVINLWGADFDAEGNLEAIYVTDSDSNASIGMKKYFVGVNSNGKVAISAKEIEEDNIGAQVLGLFTLSTGQDIWNQTN
Result: 348

FYI, the data here is from patent US20250027068.
